Measured pIC50, listed per entry for reference.
Molecular target: LYP/PTPN22 (Homo sapiens)
Construct: catalytic domains of LYP (aa 2-309) and PTP-PEST (aa 2-323, PEST); 6xHis (N, cleaved yes); made in house; host or cells: E. coli BL21
Sequence (Q9Y2R2 2-309): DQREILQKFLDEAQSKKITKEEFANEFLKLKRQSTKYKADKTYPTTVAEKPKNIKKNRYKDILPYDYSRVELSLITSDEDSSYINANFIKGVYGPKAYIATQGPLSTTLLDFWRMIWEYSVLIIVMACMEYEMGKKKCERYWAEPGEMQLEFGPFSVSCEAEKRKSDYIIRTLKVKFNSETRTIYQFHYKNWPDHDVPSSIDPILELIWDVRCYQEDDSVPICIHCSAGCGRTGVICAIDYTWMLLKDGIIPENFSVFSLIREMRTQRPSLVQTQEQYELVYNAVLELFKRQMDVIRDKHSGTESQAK
Experiment: biochemical
Details: LYP IC50, Table IV, analogues of E3P13
pIC50: −log10 of the molar value.
quantity.kind: pIC50

> print(dat)
                             molecule.smiles         measurement.target  inequality.operator  measured
 1  Cc1ccc2[nH]c(=O)c([C@H](c3nnnn3C(C)(C)C)N3CCCC4(CCCCC4)C3)cc2c1  LYP/PTPN22 (Homo sapiens)                    =      4.67
 2  Cc1cc(C)c2[nH]c(=O)c([C@H](c3nnnn3C(C)(C)C)N3CCCC4(CCCCC4)C3)cc2c1  LYP/PTPN22 (Homo sapiens)                    =      4.87
 3  CCOC(=O)C1CCN([C@H](c2cc3cc(C)ccc3[nH]c2=O)c2nnnn2C2CCCC2)CC1  LYP/PTPN22 (Homo sapiens)                    <      4.40
 4  COc1ccc2cc([C@H](c3nnnn3CC3CCCC3)N3CCCC4(CCCCC4)C3)c(=O)[nH]c2c1  LYP/PTPN22 (Homo sapiens)                    <      4.40
 5  Cc1cc(C)c2cc([C@H](c3nnnn3C3CCCC3)N3CCC[C@@H](C)C3)c(=O)[nH]c2c1  LYP/PTPN22 (Homo sapiens)                    =      4.51
 6  Cc1cc(C)c2[nH]c(=O)c([C@H](c3nnnn3C3CCCC3)N3CCCCC3)cc2c1  LYP/PTPN22 (Homo sapiens)                    <      4.40
 7  COc1ccc(N2CCN([C@H](c3cc4ccc(OC)cc4[nH]c3=O)c3nnnn3C3CCCC3)CC2)cc1  LYP/PTPN22 (Homo sapiens)                    <      4.40
 8  Cc1ccc2cc([C@H](c3nnnn3C3CCCC3)N3CCN(c4ccccc4)CC3)c(=O)[nH]c2c1  LYP/PTPN22 (Homo sapiens)                    =      4.51
 9  Cc1ccc2[nH]c(=O)c([C@H](c3nnnn3C3CCCC3)N3CCN4CCC[C@H]4C3)cc2c1  LYP/PTPN22 (Homo sapiens)                    <      4.40
10  Cc1ccc2cc([C@H](c3nnnn3C(C)(C)C)N3CCCC4(CCCCC4)C3)c(=O)[nH]c2c1  LYP/PTPN22 (Homo sapiens)                    =      4.69
11  CCC(C)(C)n1nnnc1[C@@H](c1cc2cc(C)ccc2[nH]c1=O)N1CCCC2(CCCCC2)C1  LYP/PTPN22 (Homo sapiens)                    =      4.98
12  CCC(C)(C)n1nnnc1[C@@H](c1cc2ccc(C)cc2[nH]c1=O)N1CCCC2(CCCCC2)C1  LYP/PTPN22 (Homo sapiens)                    =      4.67
13  Cc1cccc2cc([C@H](c3nnnn3C3CCCC3)N3CCC[C@@H](C)C3)c(=O)[nH]c12  LYP/PTPN22 (Homo sapiens)                    <      4.40
14  Cc1ccc2[nH]c(=O)c([C@@H](c3nnnn3C3CCCC3)N3CCOCC3)cc2c1  LYP/PTPN22 (Homo sapiens)                    <      4.40
15  Cc1cc(C)c2[nH]c(=O)c([C@@H](c3nnnn3Cc3ccccc3)N3CCCC4(CCCCC4)C3)cc2c1  LYP/PTPN22 (Homo sapiens)                    =      4.89
16  Cc1cccc2cc([C@H](c3nnnn3Cc3ccccc3)N3CCCC4(CCCCC4)C3)c(=O)[nH]c12  LYP/PTPN22 (Homo sapiens)                    =      4.69
17  Cc1ccc2cc([C@@H](c3nnnn3C3CCCC3)N3CCCCC3)c(=O)[nH]c2c1C  LYP/PTPN22 (Homo sapiens)                    <      4.40
18  COc1ccc2cc([C@H](c3nnnn3Cc3ccccc3)N3CCCC4(CCCCC4)C3)c(=O)[nH]c2c1  LYP/PTPN22 (Homo sapiens)                    =      4.71
19  CCC(C)(C)n1nnnc1[C@@H](c1cc2ccc(OC)cc2[nH]c1=O)N1CCCC2(CCCCC2)C1  LYP/PTPN22 (Homo sapiens)                    =      4.65
20  Cc1ccc2[nH]c(=O)c([C@H](c3nnnn3C3CCCC3)N3CCC(O)CC3)cc2c1  LYP/PTPN22 (Homo sapiens)                    <      4.40
21  Cc1cc(C)c2cc([C@H](c3nnnn3C(C)(C)C)N3CCCC4(CCCCC4)C3)c(=O)[nH]c2c1  LYP/PTPN22 (Homo sapiens)                    =      4.71
22  Cc1ccc2[nH]c(=O)c([C@@H](c3nnnn3C3CCCC3)N(CCc3ccccc3)Cc3ccccc3)cc2c1  LYP/PTPN22 (Homo sapiens)                    =      4.88
23  O=c1[nH]c2ccccc2cc1[C@@H](c1nnnn1C1CCCC1)N1CCc2ccccc2C1  LYP/PTPN22 (Homo sapiens)                    =      4.55
24  CCC(C)(C)n1nnnc1[C@@H](c1cc2cc(C)cc(C)c2[nH]c1=O)N1CCCC2(CCCCC2)C1  LYP/PTPN22 (Homo sapiens)                    =      4.92
